# system: T1, 4H2758-AA
# T1 chain: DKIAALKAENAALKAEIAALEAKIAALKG
# test.summary: two-hybrid library CCmax;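 note: natural log of median RNA to DNA barcode read ratio; higher means stronger binding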
# condition.details: mean of both orientations
result.type: interaction score

{"columns": ["binder", "result.type", "observed.result"],
 "data": [
  ["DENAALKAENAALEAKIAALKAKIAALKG [4H1710-AA]", "interaction score", 1.82],
  ["DENAALKAKNAALKAEIAALEAEIAALEG [4H1985-AA]", "interaction score", 0.628],
  ["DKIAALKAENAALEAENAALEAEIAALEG [4H2705-AA]", "interaction score", -1.01],
  ["DKIAALKAEIAALKAENAALEAKIAALKG [4H2646-AA]", "interaction score", -0.75]
]}
